test: Multiple component PK study in rat plasma after p.o. GDDP (HPLC-MS); details: Sprague-Dawley, rat, plasma, po, 0.8 g/kg
Property label: AUC(0-t) (ng·h/mL)
Number only, in ng·h/mL; omit the unit.

Here's what some known entries look like.
Compound	Measurement unit	AUC(0-t)
C[C@H]1COC2=C1C(=O)C(=O)c1c2ccc2c1CCCC2(C)C	ng·h/mL	2.76
CC(C)=CCC[C@](C)(O[C@@H]1O[C@H](CO)[C@@H](O)[C@H](O)[C@H]1O)[C@H]1CC[C@]2(C)[C@@H]1[C@H](O)C[C@@H]1[C@@]3(C)CC[C@H](O[C@@H]4O[C@H](CO)[C@@H](O)[C@H](O)[C@H]4O[C@@H]4O[C@H](CO)[C@@H](O)[C@H](O)[C@H]4O)C(C)(C)[C@@H]3CC[C@]12C [Rd, ginsenoside Rd]	ng·h/mL	281
Cc1cccc2c3c(ccc12)C1=C(C(=O)C3=O)[C@@H](C)CO1 [DHTS I, dihydrotanshinone I]	ng·h/mL	14.7

Okay, now this compound:
I would be grateful if you could share the reported AUC(0-t) for CC(C)=CCC[C@](C)(O[C@@H]1O[C@H](CO[C@@H]2O[C@H](CO)[C@@H](O)[C@H](O)[C@H]2O)[C@@H](O)[C@H](O)[C@H]1O)[C@H]1CC[C@]2(C)[C@@H]1[C@H](O)C[C@@H]1[C@@]3(C)CC[C@H](O[C@@H]4O[C@H](CO)[C@@H](O)[C@H](O)[C@H]4O[C@@H]4O[C@H](CO)[C@@H](O)[C@H](O)[C@H]4O)C(C)(C)[C@@H]3CC[C@]12C [Rb1, ginsenoside Rb1] .
998
